# System Tested: VEGF (R&D systems, Minneapolis, Minn.) (UniProt P15692-4 27-191, limits assumed)
# Sequence (P15692 other isoform, or with tags, fused parts or gaps limits assumed): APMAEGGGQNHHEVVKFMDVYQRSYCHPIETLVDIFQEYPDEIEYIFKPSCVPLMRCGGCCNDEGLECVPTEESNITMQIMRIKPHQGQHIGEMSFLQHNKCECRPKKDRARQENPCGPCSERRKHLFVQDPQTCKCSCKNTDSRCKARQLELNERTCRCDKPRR
# Method: BIAcore SPR

{"Binder": "91 (antibody, human IgG1, V domains shown) VH: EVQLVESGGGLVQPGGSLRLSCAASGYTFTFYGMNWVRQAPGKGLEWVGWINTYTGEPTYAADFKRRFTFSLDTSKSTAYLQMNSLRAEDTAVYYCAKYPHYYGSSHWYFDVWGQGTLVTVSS VL: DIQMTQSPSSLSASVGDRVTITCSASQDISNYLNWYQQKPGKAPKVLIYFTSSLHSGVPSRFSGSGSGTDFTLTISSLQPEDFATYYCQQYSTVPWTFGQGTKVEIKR", "Result Unit": "s⁻¹", "koff": 0.000121}
{"Binder": "87 (antibody, human IgG1, V domains shown) VH: EVQLVESGGGLVQPGGSLRLSCAASGYTFTFYGMNWVRQAPGKGLEWVGWINTYTGEPTYAADFKRRFTFSLDTSKSTAYLQMNSLRAEDTAVYYCAKYPEYDGGSHWYFDVWGQGTLVTVSS VL: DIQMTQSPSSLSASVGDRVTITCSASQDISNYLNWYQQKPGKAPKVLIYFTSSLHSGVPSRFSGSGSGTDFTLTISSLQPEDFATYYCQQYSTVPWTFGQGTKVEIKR", "Result Unit": "s⁻¹", "koff": 0.00016}
{"Binder": "93 (antibody, human IgG1, V domains shown) VH: EVQLVESGGGLVQPGGSLRLSCAASGYTFTNYGMNWVRQAPGKGLEWVGWINTYTGEPTYAADFKRRFTFSLDTSKSTAYLQMNSLRAEDTAVYYCAKYPEYYGSSHWYFDVWGQGTLVTVSS VL: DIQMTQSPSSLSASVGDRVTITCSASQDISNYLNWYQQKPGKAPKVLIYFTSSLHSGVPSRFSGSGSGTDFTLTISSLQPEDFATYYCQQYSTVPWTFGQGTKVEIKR", "Result Unit": "s⁻¹", "koff": 0.000225}
{"Binder": "86 (antibody, human IgG1, V domains shown) VH: EVQLVESGGGLVQPGGSLRLSCAASGYTFTFYGMNWVRQAPGKGLEWVGWINTYTGEPTYAADFKRRFTFSLDTSKSTAYLQMNSLRAEDTAVYYCAKYPDYEGSSHWYFDVWGQGTLVTVSS VL: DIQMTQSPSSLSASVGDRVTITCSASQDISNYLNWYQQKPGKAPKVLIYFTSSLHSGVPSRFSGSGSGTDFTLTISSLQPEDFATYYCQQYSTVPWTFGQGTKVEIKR", "Result Unit": "s⁻¹", "koff": 0.000238}
{"Binder": "96 (antibody, human IgG1, V domains shown) VH: EVQLVESGGGLVQPGGSLRLSCAASGYTFTFYGMNWVRQAPGKGLEWVGWINTYTGEPTYAADFKRRFTFSLDTSKSTAYLQMNSLRAEDTAVYYCAKYPPYYGGSHWYFDVWGQGTLVTVSS VL: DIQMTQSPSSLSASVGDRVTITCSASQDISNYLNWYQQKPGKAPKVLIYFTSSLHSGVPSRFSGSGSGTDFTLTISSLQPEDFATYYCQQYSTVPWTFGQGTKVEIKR", "Result Unit": "s⁻¹", "koff": 0.000379}
{"Binder": "86 (seventh row of Table 7) (antibody, human IgG1, V domains shown, defined here by its substitutions; copies: 2 + 2) VH: EVQLVESGGGLVQPGGSLRLSCAASGYTFTFYGMNWVRQAPGKGLEWVGWINTYTGEPTYAADFKRRFTFSLDTSKSTAYLQMNSLRAEDTAVYYCAKYPHYDGGSHWYFDVWGQGTLVTVSS VL: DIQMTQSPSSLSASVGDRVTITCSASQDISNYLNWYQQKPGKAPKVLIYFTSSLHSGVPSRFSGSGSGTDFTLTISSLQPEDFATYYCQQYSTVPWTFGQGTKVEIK", "Result Unit": "s⁻¹", "koff": 0.000273}
{"Binder": "83 (antibody, human IgG1, V domains shown) VH: EVQLVESGGGLVQPGGSLRLSCAASGYTFTFYGMNWVRQAPGKGLEWVGWINTYTGEPTYAADFKRRFTFSLDTSKSTAYLQMNSLRAEDTAVYYCAKYPPYDGGSHWYFDVWGQGTLVTVSS VL: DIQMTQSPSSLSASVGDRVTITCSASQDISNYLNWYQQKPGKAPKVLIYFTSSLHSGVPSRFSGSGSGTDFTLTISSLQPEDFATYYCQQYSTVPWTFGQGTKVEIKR", "Result Unit": "s⁻¹", "koff": 0.000194}
{"Binder": "89 (antibody, human IgG1, V domains shown) VH: EVQLVESGGGLVQPGGSLRLSCAASGYTFTFYGMNWVRQAPGKGLEWVGWINTYTGEPTYAADFKRRFTFSLDTSKSTAYLQMNSLRAEDTAVYYCAKYPPYDGSSHWYFDVWGQGTLVTVSS VL: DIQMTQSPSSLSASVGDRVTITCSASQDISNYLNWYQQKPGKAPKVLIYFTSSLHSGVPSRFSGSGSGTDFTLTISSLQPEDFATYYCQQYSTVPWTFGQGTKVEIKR", "Result Unit": "s⁻¹", "koff": 0.000249}
